Assay: Stability of the compound in aqueous medium assessed as hydrolysis after 30 mins by HPLC analysis
Assay type: physicochemical
Details: buffer, 0.5 h
test_readout: Stability

Inquiry: Fill in reported Stability for this entry: COc1cc(C=C2C(=O)N(Cc3ccccc3)C(=O)N(Cc3ccccc3)C2=O)ccc1O
Reply text: Unstable

Inquiry: Fill in reported Stability for this entry: COc1ccc(C=C2C(=O)N(Cc3ccccc3)C(=O)N(Cc3ccccc3)C2=O)cc1O
Reply text: Unstable

Inquiry: Fill in reported Stability for this entry: O=C1C(=Cc2ccc(O)c(O)c2)C(=O)N(Cc2ccccc2)C(=O)N1Cc1ccccc1
Reply text: Unstable

Inquiry: Fill in reported Stability for this entry: O=C1C(=Cc2ccc(O)cc2)C(=O)N(Cc2ccccc2)C(=O)N1Cc1ccccc1
Reply text: Unstable
